# System: AncSZ
# experiment-notes: phosphorylation enrichment, bacterial display (enrichment ratio); higher = better substrate or ligand; peptides without Tyr show the background;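 further: 11-residue human phosphosite peptides and single-mutation variants displayed on the E. coli surface, counted by deep sequencing, each peptide's frequency after selection divided by its frequency in the unselected input library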;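 further: frequency after pTyr selection over input frequency; kinase dosed for 20-30% of maximal phosphorylation in three min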
# maps each entry to its phosphorylation enrichment

As a guide, the following entries are already answered.
ordered-residues	phosphorylation enrichment
EKKKFYDAKIE [CASP5_Y104_T106A_YF]	0.751
LQLLGDRPVYS [CHST6_Y358_Y358D]	1.88
GDPTEYFSTAI [IGSF22_Y501_YF]	1.54

Problem: Could you tell me which phosphorylation enrichment is on file for FATAGYGSLEA [EPHA10_Y959_A956T] ?
Result: 0.833

Problem: Could you tell me which phosphorylation enrichment is on file for KLSCSYSHLSA [C4BPA_Y470_W473L] ?
Result: 1.15

Problem: Could you tell me which phosphorylation enrichment is on file for ISDEAYVMAGV [ERBB2_Y772_L768S] ?
Result: 1.15

Problem: Could you tell me which phosphorylation enrichment is on file for RAHARYCADAR [ACOT4_Y52] ?
Result: 0.614

Problem: Could you tell me which phosphorylation enrichment is on file for GYEEAYSVSKK [PAFAH1B1_Y28_F31S] ?
Result: 0.893

Problem: Could you tell me which phosphorylation enrichment is on file for TALFIYIRPKA [OR10C1_Y258] ?
Result: 1.23

Problem: Could you tell me which phosphorylation enrichment is on file for GYKVRYATGSI [FGFR1_Y210_W213G] ?
Result: 0.499

----------
# maps each entry to its phosphorylation enrichment
# experimental-system: Fes (UniProt P07332)
# Sequence (P07332 whole entry, looked up): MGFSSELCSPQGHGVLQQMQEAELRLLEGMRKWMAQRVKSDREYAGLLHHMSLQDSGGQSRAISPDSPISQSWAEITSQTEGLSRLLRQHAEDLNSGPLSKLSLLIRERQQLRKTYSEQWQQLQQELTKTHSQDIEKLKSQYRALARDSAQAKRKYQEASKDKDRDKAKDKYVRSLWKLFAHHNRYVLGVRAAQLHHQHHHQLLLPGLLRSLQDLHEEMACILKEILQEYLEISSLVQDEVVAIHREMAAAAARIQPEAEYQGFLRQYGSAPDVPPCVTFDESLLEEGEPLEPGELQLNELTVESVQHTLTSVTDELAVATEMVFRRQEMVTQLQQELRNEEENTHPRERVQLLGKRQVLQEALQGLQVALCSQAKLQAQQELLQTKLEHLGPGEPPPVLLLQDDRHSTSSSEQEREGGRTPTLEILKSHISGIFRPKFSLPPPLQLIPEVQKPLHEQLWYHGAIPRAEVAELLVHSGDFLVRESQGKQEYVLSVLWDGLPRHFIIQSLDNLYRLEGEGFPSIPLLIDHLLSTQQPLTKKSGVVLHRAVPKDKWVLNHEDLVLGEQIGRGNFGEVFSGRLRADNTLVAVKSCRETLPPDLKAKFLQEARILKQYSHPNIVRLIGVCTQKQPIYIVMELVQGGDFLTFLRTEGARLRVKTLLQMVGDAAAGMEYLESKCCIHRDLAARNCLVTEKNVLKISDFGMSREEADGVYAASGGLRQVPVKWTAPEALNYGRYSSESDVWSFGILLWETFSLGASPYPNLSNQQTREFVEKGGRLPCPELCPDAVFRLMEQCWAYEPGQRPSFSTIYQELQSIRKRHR
# experiment-notes: phosphorylation enrichment, bacterial display (enrichment ratio); higher = better substrate or ligand; peptides without Tyr show the background
Reply with just the number.

As a guide, the following entries are already answered.
ordered-residues	phosphorylation enrichment
TSIGNYFKPWF [DHCR24_Y299_N294T_YF]	0.778
GLIPAYHRFIM [NMNAT1_Y64_V67F]	0.822
MSSLYYANALF [HOXB7_Y6_T9A]	1.04
ENGPFYASFPP [GDAP2_Y488_T489A_YF]	0.858
GAVDTYCRHNY [HLA-DRB1_Y107_A102G]	0.763
MVSLFYGTAIF [OR10C1_Y251_L255I]	1.53
FKPENYRRLDI [VHL_Y175_V170F]	0.738

# input for lookup
Problem: Could you tell me which phosphorylation enrichment is on file for NKKFHYRELPV [ERN2_Y860_H858Y_YF] ?
Result: 0.508

----------
# experimental-system: Fes (UniProt P07332)
# experiment-notes: phosphorylation enrichment, bacterial display (enrichment ratio); higher = better substrate or ligand; peptides without Tyr show the background
Each entry gets condition not met if its phosphorylation enrichment stays under 1, and condition met if its phosphorylation enrichment is 1 or above.

ordered-residues	assigned-class
AALSAYAPQRP [PTPRN2_Y249_A251P]	condition met
NLPGGYSGSVK [MCPH1_Y606]	condition not met
NMSRIYSTTKV [ACE_Y151_A154T]	condition not met
QTPVLYTMLDH [MPZ_Y220_A221T]	condition met
YADGVYQALEE [DUOX2_Y70]	condition met

Problem: Check if phosphorylation enrichment >= 1 (inclusive). Item: SLLPDYEDEEE [ZNF830_Y159]
Result: condition met

Problem: Check if phosphorylation enrichment >= 1 (inclusive). Item: FKDGQYWIRGQ [ACSF3_Y466_R471Q]
Result: condition not met

Problem: Check if phosphorylation enrichment >= 1 (inclusive). Item: AHDGEYGAEAL [HBA1_Y25_A22D]
Result: condition met

Problem: Check if phosphorylation enrichment >= 1 (inclusive). Item: AMCVCYDGVEV [ADAMTSL2_Y594_R593C]
Result: condition met
